target: recombinant human ACC1 (rhACC1) (Homo sapiens, UniProt Q13085, DEL44-44); construct: recombinant baculovirus containing full length human ACC1 cDNA; experiment: recombinant hACC1 Transcreener ADP detection FP assay; conditions: 50 μM ATP, 30 μM acetyl-CoA
measurement.kind: IC50

1. O=C1CC2(CCN(C(=O)c3ccc4[nH]ncc4c3)CC2)Cc2cn(C34CC(C3)C4)nc21 :: 0.032 µM
2. CC(C)(C)n1ncc2c1C(=O)CC1(CCN(C(=O)c3ccc4[nH]nc(C(N)=O)c4c3)CC1)C2 :: 0.0074 µM
3. CC(C)n1ncc2c1C(=O)CC1(CCN(C(=O)c3ccc4[nH]c(N)nc4c3)CC1)C2 :: 0.017 µM
4. CNc1ccc2ccc(C(=O)N3CCC4(CC3)CC(=O)c3c(cnn3C(C)C)C4)cc2n1 :: 0.0024 µM
